Hello, the source for this data is PubChem BioAssay, in case you need it.

- Target Desc: Concanavalin-A (Canavalia ensiformis)
- Test Name: compounds binding concanavalin A lectin – biochemical, small-molecule microarray, Alexa647 label, 635 nm, artefact control for SMM control protein annotation, primary screen (AID 1127);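 note: z combines 667 nm emission intensity with signal-to-noise across three replicate slides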
- Measurement Context: ConA-A647 binding fluorescence, higher = more signal
Assign class by composite z-score: not lower than 0.9 means met; lower than 0.9 means not met.

{"Compound": "CN1C(=O)C2C=CC(C(O)c3ccccc3)N(N3CCCCC3)C2C1=O (configuration not stated)", "Answer Label": "not met"}
{"Compound": "C=CC[C@]1(C(=O)N2CCOCC2)N=C(c2ccc(OCCCO)cc2)O[C@H]1c1ccccc1N=[N+]=[N-]", "Answer Label": "met"}
{"Compound": "COc1cc(CO)cc(I)c1O[C@H]1C=C(C(=O)NCCO)C[C@@H](NC[C@@H]2CCCO2)[C@@H]1O", "Answer Label": "not met"}
{"Compound": "NCCCCCNC(=O)[C@H]1C[C@H]2C(=O)N3CCC[C@H]3C(=O)N2[C@H]1c1ccc(O)cc1", "Answer Label": "met"}
{"Compound": "CS(=O)(=O)CCOC(=O)C1=CC(CCCO)=CC(C2CC2)N(Cc2cc3c(cc2Br)OCO3)C=C1C(=O)OCCS(C)(=O)=O (configuration not stated)", "Answer Label": "not met"}

Query: Check this compound for composite z-score at or above 0.9: COC(=O)C(CC#Cc1ccc2c(c1)[C@]1(C(=O)N2)[C@H](c2ccc(O)cc2)N2[C@H](c3ccccc3)[C@H](c3ccccc3)OC(=O)[C@H]2[C@@H]1C(=O)N1CCN(c2ncccn2)CC1)C(=O)OC
Result: met

Query: Decide: composite z-score of O=C1OCCC=C[C@H]2OC34C=CCN(c5ccc(Cl)cc5)C(=O)[C@H]3N(CCCO)C(=O)[C@@H]4C12 (some centres not stated) >= 0.9?
Result: not met

* * *

- Target Desc: Torsin-1A-interacting protein 2 (Homo sapiens)
- Test Name: small molecules binding lysate-expressed LULL1 – cell lysate, human LULL1 lysate, 635/667 nm fluorescence, primary screen (AID 1092);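 note: probe is lysate of COS7 cells overexpressing human LULL1; score merges per-feature 667 nm fluorescence with signal-to-noise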
- Measurement Context: small-molecule microarray, hLULL1 lysate binding, 635 nm fluorescence; higher = more signal
Reported composite z-score values for the following molecules.
I'd appreciate a reply containing only the number, no unit.

{"Molecule": "CCOC(=O)C1=C[C@@H](C(C)C)N(S(=O)(=O)c2ccc(C)cc2)[C@H]1c1ccccc1F", "Target Desc": "Torsin-1A-interacting protein 2 (Homo sapiens)", "composite z-score": 2.8}
{"Molecule": "Cc1ccc(C2C3C(=O)CC4C(=O)N(c5ccccc5)C(=O)C4C3CN2S(=O)(=O)c2ccc(C)cc2)cc1 (centres undefined)", "Target Desc": "Torsin-1A-interacting protein 2 (Homo sapiens)", "composite z-score": 2.93}
{"Molecule": "Cc1ccc(S[C@]2(C(=O)O)CC(=O)N(Cc3ccccc3C(F)(F)F)[C@@H]2c2ccc(CO)cc2I)cc1", "Target Desc": "Torsin-1A-interacting protein 2 (Homo sapiens)", "composite z-score": 1.65}

Query molecule follows.
Query: Record lookup: for Torsin-1A-interacting protein 2 (Homo sapiens), what composite z-score belongs to [N-]=[N+]=NCc1ccccc1[C@@H]1OC(c2ccc(OCCCO)cc2)=N[C@]1(CCS(=O)(=O)c1ccccc1)C(=O)N1CCOCC1 ?
Result: 3.24

* * *

- Test Name: Pseudomonas biofilm growth suppression – PAO1 strain, BacTiter-Glo luminescence, LB-PBS, primary screen (AID 1144)
- Measurement Context: P. aeruginosa PAO1 biofilm, 12 h, higher = more signal
Quantity Kind: z-score
Simply state the number, no unit and no words.

{"Compound": "O=C1C[C@@](C(=O)NCc2ccccc2)(c2ccc([N+](=O)[O-])cc2)[C@@H](c2ccc(CO)cc2)N1CC12CC3CC(CC(C3)C1)C2", "z-score": 0.657}

Query: Requested read-out: z-score. Entry: COCC(=C=CC[C@H](O)c1cccc(OCCO)c1)CCO
Result: -0.833

Query: What measured z-score goes with CCOC(=O)C[C@H]1[C@H](OC(=O)c2ccc(C(=O)c3ccccc3)cc2)[C@@H](NC(=O)Cc2ccc(OC)cc2)c2cc(OCCCO)ccc2N1C(=O)c1ccc2ccccc2n1 ?
Result: -0.193

Query: Would you mind telling me what z-score value was observed for NC(=O)N1C(=O)C2C(C1=O)C1C=C(CCCO)C2C(C2CC2)N1Cc1cc2c(cc1Br)OCO2 (stereo not given) ?
Result: 1.44

Query: z-score for COc1ccc([Si](C)(C)[C@H]2[C@H](CC(=O)N3CCC[C@H]3CO)O[C@@]3(C(=O)N(Cc4cccc(N5CCOC5=O)c4)c4ccccc43)[C@@H]2C)cc1 ?
Result: 0.621

Query: Returns the measured z-score for the input compound. Input: C=C(CCCC)/C(=C/C[C@@H](OC(C)=O)c1ccccc1OCCO)c1cc(C(=O)OC)ccc1OC
Result: -0.341

* * *

Reported z-score values for a set of molecules
- Test Name: forskolin-driven CRE-LacZ activity in PC12 – cell-based, CRE-LacZ reporter, forskolin-stimulated, primary screen (AID 1146);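 note: PC12 cells with 6xCRE LacZ reporter stimulated by forskolin 10 µM; beta-galactosidase reporter signal reflecting CREB driven transcription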
- Measurement Context: luminescence, 4.5 h, higher = more signal, called active from +8 up or from −8 down
Response field accepts a number only; no unit should be typed.

Use these answered entries as a reference point.
{"Molecule": "NC(=O)[C@@H]1[C@H]2C(=O)O[C@H](c3ccccc3)[C@H](c3ccccc3)N2[C@H](c2ccc(O)cc2)[C@@]12C(=O)Nc1ccc(C#CC3=CCCCC3)cc12", "z-score": 0.117}
{"Molecule": "C=C(/C(=C/C[C@H](OC(=O)c1ccncc1)c1ccc(OCCO)cc1)c1cc(C(=O)OC)ccc1OC)C(C)C", "z-score": -0.359}
{"Molecule": "O=C(NCc1ccccc1)[C@@H]1c2ccccc2C(=O)N(C2Cc3ccccc3C2)[C@H]1c1ccc(CO)cc1", "z-score": 0.134}
{"Molecule": "COc1ccccc1CN1C(=O)c2ccccc2[C@@H](C(=O)NCc2ccccc2)[C@@H]1c1ccc(CO)cc1", "z-score": -1.35}
{"Molecule": "O=C1O[C@@H](c2ccccc2)[C@@H](c2ccccc2)N2[C@@H](c3ccccc3OCCO)[C@]3(C(=O)Nc4ccccc43)[C@@H](C(=O)O)[C@H]12", "z-score": 2.62}
{"Molecule": "COCCCNC(=O)[C@@]1(Cc2ccccc2CN=[N+]=[N-])N=C(c2ccc(OCCCO)cc2)O[C@H]1c1ccccc1CN=[N+]=[N-]", "z-score": -1.68}
{"Molecule": "CO[C@H]1O[C@H](CO)[C@@H](OC(=O)Nc2cccc(F)c2)[C@H](OC(=O)Nc2ccccc2)[C@H]1OC(=O)Nc1ccccc1", "z-score": -1.22}
{"Molecule": "O=C1NC(=O)C2C1C=CC(C(O)C=Cc1ccc([N+](=O)[O-])cc1)N2Nc1ccc(Cl)cc1Cl (stereo not given)", "z-score": 0.342}
{"Molecule": "O=C1NC(=O)C2C1C=CC(C(O)c1ccc(I)cc1)N2Nc1ccccn1 (stereo not given)", "z-score": 0.0542}
{"Molecule": "COc1ccccc1CN1C(=O)c2ccccc2[C@@]2(Cc3ccccc3N(CCCN(C)C)C2=O)[C@@H]1c1ccc(CO)cc1", "z-score": -0.926}

Query: Need z-score of COC(=O)[C@H](Cc1ccccc1)N[C@H](/C=C/C1CC1)[C@@H](O)Cc1ccccc1 , thanks.
Result: -1.23

Query: Fill blank: measured z-score of the molecule O=C1NC(=O)C2C1C=CC(C(O)C1CC=CCC1)N2Nc1ccccn1 (stereo not given) is ____.
Result: 0.383

Query: Give the measured z-score of COCCCNC(=O)[C@@H]1c2ccccc2C(=O)N(Cc2ccccc2OC)[C@H]1c1ccc(CO)cc1 .
Result: 0.715

Query: So what's the measured z-score for this one? [N-]=[N+]=Nc1ccccc1C[C@]1(C(=O)N2CCCCC2)COC(c2ccc(OCCCO)cc2)=N1
Result: -0.57

Query: Can you look up the measured z-score of CN1C(=O)C2C=CC(C(O)c3c(F)cccc3Cl)N(NC(=O)OC(C)(C)C)C2C1=O (stereo not given) for me?
Result: 0.947

Query: Given the molecule CC(=O)NCCCC[C@@H]1NC(=O)[C@H]2C[C@@H](C(=O)O)[C@@H](c3ccc(O)cc3)N2C1=O , what is its reported z-score?
Result: 7.82

Query: Could you tell me which z-score is on file for C=C(CCCC)/C(=C/C[C@H](OC(C)=O)c1ccc(OCCO)cc1)c1cnc2ccccc2c1 ?
Result: 1.08

Query: // lookup z-score for COC(=O)[C@@]1(Cc2ccc(F)cc2)[C@H]2c3cc(C(=O)N(C)C)n(Cc4cc(C)n(C)n4)c3C[C@H]2CN1C(=O)c1ccccc1
Result: 0.455

Query: Returns the measured z-score for the input molecule. Input: O[C@@H](Cc1ccccc1)[C@@H](/C=C/C1CC1)NCc1cccc(Cl)c1
Result: -0.426

Query: Value lookup for z-score; key = CC(C)(C)OC(=O)CC[C@@]1(C(=O)N2CCCCC2)N=C(c2ccc(OCCCO)cc2)O[C@@H]1c1ccccc1
Result: 0.127

Query: Give its z-score value. Item: CC(C)CNC(=O)[C@@]1(Cc2ccccc2I)c2ccccc2C(=O)N(Cc2ccccc2C(F)(F)F)[C@H]1c1ccc(CO)cc1
Result: 1.04

Query: Dear colleague, I am looking for the recorded z-score of the following molecule: NC(=O)[C@@]1(Cc2ccccc2)N=C(c2ccc(OCCCO)cc2)O[C@H]1c1ccccc1
Result: -0.382

Query: Which value of z-score has been reported for O=C1C2C=CC(C(O)C=Cc3ccc([N+](=O)[O-])cc3)N(n3cnnc3)C2C(=O)N1Cc1ccccc1 (stereo not given) in the records?
Result: 0.343

Query: # get_value(readout='z-score', item= CO[C@H]1O[C@H](CO)[C@@H](OC(=O)Nc2ccc(Oc3ccccc3)cc2)[C@H](OC(=O)Nc2ccc3c(c2)OCO3)[C@@H]1OC(=O)Nc1ccc2c(c1)OCO2 )
Result: -0.917
